Data origin, for the record: ChEMBL document CHEMBL5584243

Tested on: MOLM-13
ASSAY COMMENT: Antiproliferative activity against human MOLM-13 cells assessed as inhibition of cell growth incubated for 72 hrs by CellTiter-Glo assay
Type: functional, cell-based
DETAILS: MOLM-13, 72 h
pIC50: −log10 of the molar value.
READOUT KIND: pIC50

[A] CCn1c(CO)nn(-c2nc(OC(C)C(F)(F)F)c(C(=O)Nc3c(F)cccc3Cl)cc2F)c1=O (centres undefined)
[B] CCn1c(CO)nn(-c2cc3c(C(C)C)cn(-c4cccc(F)c4C)c(=O)c3cc2F)c1=O
[C] CCn1c(CO)nn(-c2cc3c([C@H](C)C(F)(F)F)cn(-c4ccccc4C)c(=O)c3cc2F)c1=O
[D] CCc1ccccc1-n1cc(C(C)C)c2cc(-n3nc(CO)n(CC)c3=O)c(F)cc2c1=O
Input line: Which order do these items take when sorted by rising pIC50? List them. Submit the labels in the order that the ranking request calls for.
Output line: B, D, C, A
(B: 8.25, D: 8.74, C: 9.23, A: 9.80)

[a] C=C(C)c1cn(-c2c(F)cccc2Cl)c(=O)c2cc(F)c(-n3nc(CO)n(CC)c3=O)nc12
[b] CCn1c(CO)nn(-c2nc3c(C(C)C)cn(-c4c(F)cccc4Cl)c(=O)c3cc2F)c1=O
Input line: // which entry has the larger pIC50 value, a or b ? Which one? Tell me its label.
Output line: b
(b: 9.36, a: 8.96)

* * *

SYSTEM: UniProt:P08684
Sequence (P08684 whole entry): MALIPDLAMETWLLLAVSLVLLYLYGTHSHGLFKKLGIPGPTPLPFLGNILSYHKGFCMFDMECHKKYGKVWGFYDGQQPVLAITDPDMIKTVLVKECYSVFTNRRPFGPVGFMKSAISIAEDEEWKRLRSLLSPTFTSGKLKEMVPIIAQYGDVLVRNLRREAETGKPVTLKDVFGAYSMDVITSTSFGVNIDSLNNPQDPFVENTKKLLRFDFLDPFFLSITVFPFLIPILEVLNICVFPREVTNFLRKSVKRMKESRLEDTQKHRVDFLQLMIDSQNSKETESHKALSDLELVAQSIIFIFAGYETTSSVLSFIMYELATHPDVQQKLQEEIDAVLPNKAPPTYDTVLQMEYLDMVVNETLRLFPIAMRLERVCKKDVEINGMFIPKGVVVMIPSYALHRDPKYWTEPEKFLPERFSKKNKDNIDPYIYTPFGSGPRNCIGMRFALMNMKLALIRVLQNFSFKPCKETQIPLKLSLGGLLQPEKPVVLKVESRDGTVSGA
ASSAY COMMENT: Induction of CYP3A4 in cryopreserved human hepatocytes using midazolam as substrate assessed as fold change at 10 uM relative to control
Type: ADME, cell-based, Hepatocyte
DETAILS: probe midazolam, read-out: FC
READOUT KIND: fold induction at 10 µM
Just the number.

Let me check: CCn1c(CO)nn(-c2cc3c(C(C)C)cn(-c4ccccc4C)c(=O)c3cc2F)c1=O , system UniProt:P08684, measured fold induction at 10 µM is 2.5

* * *

ASSAY COMMENT: Equilibrium solubility of compound in FaSSIF at pH 6.5 using crystalline form incubated for 2 to 5 days by HPLC analysis
Assay type: ADME
DETAILS: time 2-5 day
READOUT KIND: solubility thermodynamic (µg/mL)
A number alone suffices; assume µg/mL.

Entry CCn1c(CO)nn(-c2cc3c(C(C)C)cn(-c4ccccc4C)c(=O)c3cc2F)c1=O — recorded solubility thermodynamic = 67

* * *

SYSTEM: AhR (aryl hydrocarbon receptor) (Homo sapiens, UniProt P35869)
Sequence (P35869 whole entry): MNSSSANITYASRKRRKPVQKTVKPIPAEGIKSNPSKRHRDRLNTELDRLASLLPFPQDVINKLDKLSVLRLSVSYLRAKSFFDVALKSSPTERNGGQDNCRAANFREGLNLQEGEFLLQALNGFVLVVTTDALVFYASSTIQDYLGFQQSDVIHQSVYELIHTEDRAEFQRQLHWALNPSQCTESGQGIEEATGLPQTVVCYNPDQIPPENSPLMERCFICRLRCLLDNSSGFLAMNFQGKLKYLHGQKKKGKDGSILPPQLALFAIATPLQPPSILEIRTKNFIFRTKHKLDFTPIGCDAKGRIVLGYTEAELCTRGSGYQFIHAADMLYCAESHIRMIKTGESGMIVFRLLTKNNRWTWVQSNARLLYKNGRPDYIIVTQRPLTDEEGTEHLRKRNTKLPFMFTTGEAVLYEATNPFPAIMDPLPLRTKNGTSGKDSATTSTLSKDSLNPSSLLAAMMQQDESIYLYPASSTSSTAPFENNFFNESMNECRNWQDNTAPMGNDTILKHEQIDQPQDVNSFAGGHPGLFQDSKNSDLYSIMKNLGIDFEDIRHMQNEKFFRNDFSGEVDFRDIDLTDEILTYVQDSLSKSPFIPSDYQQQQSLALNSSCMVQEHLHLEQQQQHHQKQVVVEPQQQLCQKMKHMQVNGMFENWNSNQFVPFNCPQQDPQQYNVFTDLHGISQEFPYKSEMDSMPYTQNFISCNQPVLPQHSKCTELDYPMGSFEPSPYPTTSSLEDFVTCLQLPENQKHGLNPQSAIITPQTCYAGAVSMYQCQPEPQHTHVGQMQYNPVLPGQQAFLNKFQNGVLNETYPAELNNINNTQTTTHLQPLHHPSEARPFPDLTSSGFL
ASSAY COMMENT: Activation of AhR (unknown origin) assessed as fold change at 1 to 10 uM relative to control
DETAILS: dose 1-10 µM, read-out: FC
READOUT KIND: fold induction

Let me check: CCn1c(CO)nn(-c2cc3c(C(C)C)cn(-c4ccccc4C)c(=O)c3cc2F)c1=O , system AhR (aryl hydrocarbon receptor) (Homo sapiens, UniProt P35869), measured fold induction is < 2

* * *

ASSAY COMMENT: Plasma protein binding in C57BL mouse at 1 uM incubated for 6.5 hrs by LC-MS/MS analysis
Format: ADME, cell-free
DETAILS: read-out: PPB (converted)
READOUT KIND: fraction unbound at 6.5 h, 1 µM

>>> print(df.to_string())
                                smiles_data  value_reported
0  CCn1c(CO)nn(-c2cc3c(C(C)C)cn(-c4ccccc4C)c(=O)c3cc2F)c1=O           0.088
1  CCn1c(CO)nn(-c2cc3c(C(C)C)cn(-c4ccccc4C(F)(F)F)c(=O)c3cc2F)c1=O           0.067

[1] CCn1c(CO)nn(-c2cc3c([C@@H](C)C(F)(F)F)cn(-c4ccccc4C)c(=O)c3cc2F)c1=O
[2] CCn1c(CO)nn(-c2cc3c(C(C)C)cn(-c4c(C)cnc(OC)c4Cl)c(=O)c3cc2F)c1=O
[3] CCn1c(CO)nn(-c2cc3c(C(C)C)cn(-c4c(F)cccc4Cl)c(=O)c3cc2F)c1=O
Input line: // sort entries: fraction unbound at 6.5 h, 1 µM, high to low Submit the labels in the order that the ranking request calls for.
Output line: 1, 2, 3
